Biological target: RARγ (Homo sapiens)
Construct: His6-3C-SUMO (cleaved yes); made in house; host or cells: E. coli BL21(DE3), pOPINS3C vector
Sequence (P13631 185-419 limits assumed): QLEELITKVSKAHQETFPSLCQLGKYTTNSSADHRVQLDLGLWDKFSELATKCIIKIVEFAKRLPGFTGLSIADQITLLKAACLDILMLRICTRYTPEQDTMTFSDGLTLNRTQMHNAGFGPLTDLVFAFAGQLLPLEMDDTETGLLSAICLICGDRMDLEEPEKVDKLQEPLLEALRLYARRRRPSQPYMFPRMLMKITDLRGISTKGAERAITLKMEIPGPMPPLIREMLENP
Experiment: Fluorescence competition binding assay (displacement of DC271)
Details: experimental binding free energy from K D, ΔGexp=−RT ln K, 298.1 K
Measured ΔGEXP RARγ, listed per entry.
property_label: ΔGEXP RARγ (kcal/mol)

> print(dat)
                                   molecule       assayed.system  measured
1  CC1(C)CCC(C)(C)c2cc(C#Cc3ccc(C(=O)O)cn3)ccc21  RARγ (Homo sapiens)     -10.4
2  CC1(C)CCC(C)(C)c2nc(C#Cc3ccc(C(=O)O)cc3F)cnc21  RARγ (Homo sapiens)     -9.38
3  Cc1sc(-c2ccc(C(=O)O)cc2F)nc1-c1cnc2c(n1)C(C)(C)CCC2(C)C  RARγ (Homo sapiens)     -7.74
4  Cc1cc2c(cc1C#Cc1ccc(C(=O)O)cc1F)C(C)(C)CCC2(C)C  RARγ (Homo sapiens)     -10.6
5  COc1cc2c(cc1C#Cc1ccc(C(=O)O)cn1)C(C)(C)CCC2(C)C  RARγ (Homo sapiens)     -7.76
6  Cc1sc(-c2ccc(C(=O)O)cc2)nc1-c1ccc2c(c1)C(C)(C)CCC2(C)C [GZ25, reference compound]  RARγ (Homo sapiens)     -8.84
7  CC1(C)CCC(C)(C)c2cc(C#Cc3ccc(C(=O)O)cc3F)ccc21  RARγ (Homo sapiens)     -10.7

// data source = paper PMC12163635
